Values were extracted from paper PMC5945669.

Assay: Regeneration of parental drug 9AC within tumors (tumor vs blood)
Type: in vivo, NOD/SCID mice
Settings: female, NOD/SCID, mouse, intravenous, 72 h post-injection, printed in picture of Fig. 9b, read-out: 9AC per gram of tissue, Tumor vs Blood
Measured metric: Kp at 72 h

Reported Kp at 72 h of CC[C@@]1(O)C(=O)OCc2c1cc1n(c2=O)Cc2cc3c(N)cccc3nc2-1 [9AC, 9-aminocamptothecin] : > 12

====

Test: Regeneration of parental drug 9AC within tumors (tumor vs blood)
Assay type: in vivo, NOD/SCID mice
Conditions: female, NOD/SCID, mouse, intravenous, 24 h post-injection, printed in picture of Fig. 9b, read-out: 9AC per gram of tissue, Tumor vs Blood
Measured metric: Kp at 24 h

Reported Kp at 24 h of CC[C@@]1(O)C(=O)OCc2c1cc1n(c2=O)Cc2cc3c(N)cccc3nc2-1 [9AC, 9-aminocamptothecin] : > 30
